Tested on: myrosinase (Myr)
Experiment: Effect of interfering substances (metal ions, small molecules, amino acids, EDTA) on the Myr test system
Assay type: biochemical
Details: interfering substances 1 mM, FIG. 17C

compound: N[C@@H](CS)C(=O)O [Cys]
inhibitory effect on Myr activity: inhibit Myr activity
--
compound: O=C1O[C@H]([C@@H](O)CO)C(O)=C1O [Vc, Vitamin C]
inhibitory effect on Myr activity: inhibit Myr activity
--
compound: N[C@@H](CCC(=O)N[C@@H](CS)C(=O)NCC(=O)O)C(=O)O [GSH]
inhibitory effect on Myr activity: inhibit Myr activity
